Cited source: paper PMC8840742

Protocol Notes: Cytotoxicity in mock-infected VeroE6 cells (MTS assay)
Condition: African green monkey
Value Kind: CC50 (µM)

c1ccc(-c2nc(-c3ccncc3)ns2)c(OC2CCN(C3CCCC3)C2)c1 (stereo not shown)    15

---

System: SARS-CoV-2
Condition: VeroE6 cells, CC50/EC50
Kindly return Satisfied if reported SI (CC50/EC50) is no lower than 5; return Not satisfied if it is lower.

FC(F)(F)c1cncc(-c2noc(-c3ccccc3OC3CCN(C4CCCC4)C3)n2)c1 (stereo not shown) [Compound 28]    Not satisfied
c1ccc(-c2noc(-c3ccncc3)n2)c(OC2CCN(C3CCCC3)C2)c1 (stereo not shown) [Compound 35]    Not satisfied
c1ccc(-c2nc(-c3ccncc3)no2)c(OCCNC2CCCC2)c1 [Compound 13]    Satisfied
CN(CCOc1ccccc1-c1nc(-c2ccncc2)no1)C1CCCC1 [Compound 14]    Not satisfied
Cc1ccncc1-c1noc(-c2ccccc2OC2CCN(C3CCCC3)C2)n1 (stereo not shown) [Compound 30]    Satisfied
c1ccc(CCN2CC[C@@H](Oc3ccccc3-c3nc(-c4ccncc4)no3)C2)cc1 [Compound 1a]    Satisfied
c1ccc(CCN2CCC(Oc3ccccc3-c3nc(-c4ccncc4)no3)C2)cc1 (stereo not shown) [Compound 1]    Not satisfied
c1ccc(CCN2CC[C@H](Oc3ccccc3-c3nc(-c4ccncc4)no3)C2)cc1 [Compound 1b]    Satisfied

---

Protocol Notes: in vitro
Condition: African green monkey
Value Kind: CC50 (µM)

Cc1ccncc1-c1noc(-c2ccccc2OC2CCN(C3CCCC3)C2)n1 (stereo not drawn)    47
c1ccc(-c2nc(-c3ccncc3)no2)c(OC2CCN(C3CCCC3)C2)c1 (stereo not drawn)    41

---

System: SARS-CoV-2
Condition: VeroE6 cells, CC50/EC50
Below, each entry is listed with its recorded SI (CC50/EC50).
Value Kind: SI (CC50/EC50)

c1ccc(-c2nc(-c3ccncc3)no2)c(OC2CCN(C3CCCC3)C2)c1 (stereo not drawn) [Compound 8]    7.6
c1ccc(-c2nc(-c3ccncc3)no2)c(OC2CCN(CC3CCCC3)C2)c1 (stereo not drawn) [Compound 9]    15
c1ccc(-c2nc(-c3ccncc3)ns2)c(OC2CCN(C3CCCC3)C2)c1 (stereo not drawn) [Compound 46]    6.5
c1ccc(-c2nc(-c3ccncc3)no2)c(OCC2CCN(C3CCCC3)C2)c1 (stereo not drawn) [Compound 10]    15.9
c1ccc(-c2nc(-c3ccncc3)no2)c(OC2CCN(C3CCCC3)CC2)c1 [Compound 12]    27.1
c1ccc(-c2nnc(-c3ccncc3)o2)c(OC2CCN(C3CCCC3)C2)c1 (stereo not drawn) [Compound 38]    3.1
FC(F)(F)c1ccncc1-c1noc(-c2ccccc2OC2CCN(C3CCCC3)C2)n1 (stereo not drawn) [Compound 29]    8.4

---

Protocol Notes: in vitro
Condition: human
Value Kind: CC50

c1ccc(CCN2CCC(Oc3ccccc3-c3nc(-c4ccncc4)no3)C2)cc1 (stereo not shown)    > 20 µM

---

Protocol Notes: in vitro
Condition: African green monkey
Classification by CC50 | ranges: lower range: < 20 µM; middle range: ≥ 20 µM and < 30 µM; upper range: ≥ 30 µM

Cc1cnccc1-c1noc(-c2ccccc2OC2CCN(C3CCCC3)C2)n1 (stereo not drawn)    lower range
CN(CCOc1ccccc1-c1nc(-c2ccncc2)no1)C1CCCC1    upper range
c1ccc(-c2nc(-c3ccncc3)no2)c(OC2CCN(CC3CCCC3)C2)c1 (stereo not drawn)    middle range
FC(F)(F)c1cncc(-c2noc(-c3ccccc3OC3CCN(C4CCCC4)C3)n2)c1 (stereo not drawn)    lower range
c1ccc(-c2noc(-c3ccccc3OC3CCN(C4CCCC4)C3)n2)cc1 (stereo not drawn)    lower range
c1cncc(-c2noc(-c3ccccc3OC3CCN(C4CCCC4)C3)n2)c1 (stereo not drawn)    upper range
c1ccc(-c2nc(-c3ccncc3)no2)c(OC2CCN(C3CCCC3)CC2)c1    upper range
c1ccc(-c2nc(-c3ccncc3)no2)c(OCC2CCN(C3CCCC3)C2)c1 (stereo not drawn)    middle range
c1ccc(-c2nc(-c3ccncc3)no2)c(OCCNC2CCCC2)c1    upper range
FC(F)(F)c1ccncc1-c1noc(-c2ccccc2OC2CCN(C3CCCC3)C2)n1 (stereo not drawn)    middle range
c1ccc(-c2nnc(-c3ccncc3)o2)c(OC2CCN(C3CCCC3)C2)c1 (stereo not drawn)    upper range
c1ccc(CCN2CCC(Oc3ccccc3-c3nc(-c4ccncc4)no3)C2)cc1 (stereo not drawn)    middle range
c1ccc(-c2nc(-c3ccnnc3)no2)c(OC2CCN(C3CCCC3)C2)c1 (stereo not drawn)    upper range
c1ccc(-c2nc(-c3cncnc3)no2)c(OC2CCN(C3CCCC3)C2)c1 (stereo not drawn)    upper range
c1ccc(CCN2CC[C@H](Oc3ccccc3-c3nc(-c4ccncc4)no3)C2)cc1    lower range
c1ccc(CCN2CC[C@@H](Oc3ccccc3-c3nc(-c4ccncc4)no3)C2)cc1    middle range

---

Tested on: MERS-CoV
Protocol Notes: microbe, parasite or virus in culture
Assay type: cell-based
Condition: Middle East respiratory syndrome-related coronavirus, Huh-7, 42 h, read-out: MERS EC50
pEC50: −log10 of the molar value.
Value Kind: pEC50

c1ccc(CCN2CCC(Oc3ccccc3-c3nc(-c4ccncc4)no3)C2)cc1 (stereo not shown)    5.30

---

Tested on: SARS-CoV-1
Protocol Notes: microbe, parasite or virus in culture
Type: cell-based
Condition: Severe acute respiratory syndrome coronavirus, Vero C1008, read-out: SARS-CoV-1 EC50
pEC50: −log10 of the molar value.
Value Kind: pEC50

c1ccc(CCN2CCC(Oc3ccccc3-c3nc(-c4ccncc4)no3)C2)cc1 (stereo not shown) [Compound 1]    5.38
